target: ATP-dependent translocase ABCB1 (Homo sapiens, UniProt P08183)
Sequence (P08183 whole entry): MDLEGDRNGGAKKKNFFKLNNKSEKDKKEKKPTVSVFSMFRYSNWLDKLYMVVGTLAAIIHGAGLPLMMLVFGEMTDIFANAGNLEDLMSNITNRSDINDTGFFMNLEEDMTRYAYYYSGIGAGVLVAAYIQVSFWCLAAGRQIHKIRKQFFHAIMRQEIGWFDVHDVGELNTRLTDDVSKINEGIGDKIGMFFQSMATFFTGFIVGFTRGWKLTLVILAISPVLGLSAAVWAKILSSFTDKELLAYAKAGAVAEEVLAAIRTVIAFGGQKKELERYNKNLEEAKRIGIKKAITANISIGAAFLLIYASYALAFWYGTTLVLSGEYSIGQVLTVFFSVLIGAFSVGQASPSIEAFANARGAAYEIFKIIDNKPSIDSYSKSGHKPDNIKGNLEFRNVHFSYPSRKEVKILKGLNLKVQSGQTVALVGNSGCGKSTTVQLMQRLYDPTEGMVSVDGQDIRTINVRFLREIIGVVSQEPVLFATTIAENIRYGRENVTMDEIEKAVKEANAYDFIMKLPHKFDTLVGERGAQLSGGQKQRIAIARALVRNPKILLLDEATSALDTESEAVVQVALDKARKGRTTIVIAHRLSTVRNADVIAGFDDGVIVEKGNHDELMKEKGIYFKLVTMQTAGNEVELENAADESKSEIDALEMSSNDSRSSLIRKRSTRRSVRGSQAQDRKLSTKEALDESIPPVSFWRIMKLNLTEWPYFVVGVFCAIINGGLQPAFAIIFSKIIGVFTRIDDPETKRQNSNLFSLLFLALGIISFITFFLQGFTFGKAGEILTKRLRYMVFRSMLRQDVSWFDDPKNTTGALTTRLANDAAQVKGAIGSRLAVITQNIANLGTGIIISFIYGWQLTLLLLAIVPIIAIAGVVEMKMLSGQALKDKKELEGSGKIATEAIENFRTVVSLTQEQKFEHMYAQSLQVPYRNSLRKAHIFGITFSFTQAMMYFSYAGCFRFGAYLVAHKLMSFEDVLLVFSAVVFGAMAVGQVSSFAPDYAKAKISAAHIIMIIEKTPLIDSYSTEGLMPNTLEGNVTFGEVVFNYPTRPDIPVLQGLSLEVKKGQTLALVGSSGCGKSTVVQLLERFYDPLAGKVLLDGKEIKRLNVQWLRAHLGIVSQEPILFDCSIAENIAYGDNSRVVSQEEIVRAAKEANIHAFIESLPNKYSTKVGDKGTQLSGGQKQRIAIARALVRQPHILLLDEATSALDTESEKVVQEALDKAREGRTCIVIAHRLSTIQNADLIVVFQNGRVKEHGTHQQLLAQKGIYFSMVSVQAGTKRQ
READOUT TYPE: pIC50
// pIC50: -log10(molar conc.)

The following compounds have reported results that may help.
COc1cc(OC)c(C(=O)Nc2ccccc2)cc1OC [2,4,5-Trimethoxy-N-phenyl-benzamide (6)] :: 4.66
COc1cc(C(=O)Nc2ccccc2)cc(OC)c1OC [3,4,5-trimethoxy-N-phenylbenzamide (5)] :: 4.15

Next compound, pIC50 to be filled in.
Looking for the measured pIC50 of `COc1cc(OC)c(C(=O)Nc2ccc(Br)cc2)cc1OC` , can you help?
5.03
